molecular target: T1, rat DLL4 extracellular domain (rat, UniProt D3ZHH1 28-530); assay: SPR (Biacore)
T1 construct: extracellular domain; also called ratDLL4 ECD
T1 sequence (D3ZHH1 28-530): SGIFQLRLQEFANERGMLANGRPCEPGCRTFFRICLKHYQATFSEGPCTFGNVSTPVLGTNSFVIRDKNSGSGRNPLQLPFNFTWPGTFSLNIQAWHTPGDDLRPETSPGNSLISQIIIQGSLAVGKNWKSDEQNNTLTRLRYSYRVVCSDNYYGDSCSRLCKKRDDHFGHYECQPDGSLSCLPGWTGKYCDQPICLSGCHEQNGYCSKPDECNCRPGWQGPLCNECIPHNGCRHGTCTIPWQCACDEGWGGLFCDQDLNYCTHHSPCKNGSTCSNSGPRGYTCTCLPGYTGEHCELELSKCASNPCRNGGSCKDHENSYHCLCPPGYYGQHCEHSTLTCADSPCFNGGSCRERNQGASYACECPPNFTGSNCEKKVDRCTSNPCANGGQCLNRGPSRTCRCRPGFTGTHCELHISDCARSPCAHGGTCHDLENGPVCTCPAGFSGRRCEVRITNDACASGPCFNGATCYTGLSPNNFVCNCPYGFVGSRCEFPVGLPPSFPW
Recorded Endpoint: koff (s⁻¹)
Give the value in s⁻¹ but do not write s⁻¹ after it.

Binder: h1A11.A11 (antibody, V domains shown, also called h1A11.A11 VH / h1A11VL.1) VH: EVQLVESGGGLVQPGGSLRLSCAASGFTFRHFPMAWVRQAPGKGLEWVATISSSDDWPNYRDSVKGRFTISRDNAKSSLYLQMNSLRAEDTAVYYCSRGYYNSPFAYWGQGTLVTVSS VL: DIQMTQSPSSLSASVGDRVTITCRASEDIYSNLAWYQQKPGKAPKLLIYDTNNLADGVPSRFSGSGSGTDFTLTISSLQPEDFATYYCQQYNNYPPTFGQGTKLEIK
koff (s⁻¹): 0.00102

// query Requested field: koff. Item: h1A11.C6 (antibody, V domains shown, also called h1A11.C6 VH / h1A11VL.1) VH: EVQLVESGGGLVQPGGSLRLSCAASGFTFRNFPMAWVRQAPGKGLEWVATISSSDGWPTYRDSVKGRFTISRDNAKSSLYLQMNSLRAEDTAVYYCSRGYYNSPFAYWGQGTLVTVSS VL: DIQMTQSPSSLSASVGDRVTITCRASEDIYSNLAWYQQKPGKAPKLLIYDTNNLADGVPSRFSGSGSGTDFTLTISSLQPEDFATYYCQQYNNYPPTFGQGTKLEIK
// result 0.00305

// query Requested field: koff. Item: h1A11.G3 (antibody, V domains shown, also called h1A11.G3 VH / h1A11.E12 VL) VH: EVQLVESGGGLVQPGGSLRLSCAASGFTFRYFPMSWVRQAPGKGLEWVASISGSDGWASYRDSVKGRFTISRDNAKNSLYLQMNSLRAEDTAVYYCARGYYNSPFAYWGQGTLVTVSS VL: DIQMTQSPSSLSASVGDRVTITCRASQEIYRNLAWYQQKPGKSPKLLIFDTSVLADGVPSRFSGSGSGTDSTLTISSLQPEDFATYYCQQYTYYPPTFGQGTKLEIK
// result 0.00101
